Reported Incidence: number of mice suffering from pulmonary fibrosis by item:
# System: ICR strain mice
# MEASUREMENT_PROTOCOL: Pulmonary toxicity (pulmonary fibrosis) in mice, intraperitoneal injection
# Format: in vivo
# CONDITIONS: 5 mg/kg i.p. once a day for 10 days; autopsy after 5 weeks; affected/total mice
MEASURED_ATTRIBUTE: Incidence: number of mice suffering from pulmonary fibrosis

{"columns": ["MOLECULE", "ENDPOINT_RESULT"],
 "data": [
  ["Cc1c(N)nc(C(CC(N)=O)NCC(N)C(N)=O)nc1C(=O)NC(C(=O)NC(C)C(O)C(C)C(=O)NC(C(=O)NCCc1nc(-c2nc(C(=O)NCCC[N+](C)(C)CCCN(Cc3ccccc3)Cc3ccccc3)cs2)cs1)C(C)O)C(OC1OC(CO)C(O)C(O)C1OC1OC(CO)C(O)C(OC(N)=O)C1O)c1cnc[nH]1 (stereo not drawn) [compound 35]", "0/9"],
  ["Cc1c(N)nc(C(CC(N)=O)NCC(N)C(N)=O)nc1C(=O)NC(C(=O)NC(C)C(O)C(C)C(=O)NC(C(=O)NCCc1nc(-c2nc(C(=O)NCCCN3CCN(CCCNCC4CCCCCCC4)CC3)cs2)cs1)C(C)O)C(OC1OC(CO)C(O)C(O)C1OC1OC(CO)C(O)C(OC(N)=O)C1O)c1cnc[nH]1 (stereo not drawn) [compound 45]", "0/9"],
  ["Cc1c(N)nc(C(CC(N)=O)NCC(N)C(N)=O)nc1C(=O)NC(C(=O)NC(C)C(O)C(C)C(=O)NC(C(=O)NCCc1nc(-c2nc(C(=O)NCCCN(C)CCCN(Cc3ccc(OCc4ccccc4)c(OCc4ccccc4)c3)Cc3ccc(OCc4ccccc4)c(OCc4ccccc4)c3)cs2)cs1)C(C)O)C(OC1OC(CO)C(O)C(O)C1OC1OC(CO)C(O)C(OC(N)=O)C1O)c1cnc[nH]1 (stereo not drawn) [Compound No. 34]", "0/9"]
]}

----------
Reported Grade of pulmonary fibrosis, % by item:
# Tested on: ICR strain mice
# MEASUREMENT_PROTOCOL: Pulmonary toxicity (pulmonary fibrosis) in mice, intraperitoneal injection
# Type: in vivo
# CONDITIONS: 5 mg/kg i.p. once a day for 10 days; autopsy after 5 weeks
# Method: (3) Pulmonary toxicity (pulmonary fibrosis) in mice. ICR strain mice (male; 15 weeks old; 9 mice per group) were used. Each mouse was administered with a daily dose of 5 mg/kg of the test sample by intraperitoneal injection, once a day, for 10 consecutive days. After completion of the predetermined administration, the mice were kept for 5 weeks under observation, then slaughtered, and autopsied to examine the incidence and grade of pulmonary fibrosis. […]

{"columns": ["COMPOUND", "UNIT", "Grade of pulmonary fibrosis, %"],
 "data": [
  ["CCCC[N+](CCCC)(CCCNC(=O)c1csc(-c2csc(CCNC(=O)C(NC(=O)C(C)C(O)C(C)NC(=O)C(NC(=O)c3nc(C(CC(N)=O)NCC(N)C(N)=O)nc(N)c3C)C(OC3OC(CO)C(O)C(O)C3OC3OC(CO)C(O)C(OC(N)=O)C3O)c3cnc[nH]3)C(C)O)n2)n1)CCCN(Cc1ccccc1)Cc1ccccc1 (stereo not shown) [compound 38]", "%", 0],
  ["Cc1c(N)nc(C(CC(N)=O)NCC(N)C(N)=O)nc1C(=O)NC(C(=O)NC(C)C(O)C(C)C(=O)NC(C(=O)NCCc1nc(-c2nc(C(=O)NCCCN(C)CCCNCc3ccc(C#N)cc3)cs2)cs1)C(C)O)C(OC1OC(CO)C(O)C(O)C1OC1OC(CO)C(O)C(OC(N)=O)C1O)c1cnc[nH]1 (stereo not shown) [compound 18]", "%", 0],
  ["Cc1c(N)nc(C(CC(N)=O)NCC(N)C(N)=O)nc1C(=O)NC(C(=O)NC(C)C(O)C(C)C(=O)NC(C(=O)NCCc1nc(-c2nc(C(=O)NCCCN(C)CCCNCC3CCCCCCCCCC3)cs2)cs1)C(C)O)C(OC1OC(CO)C(O)C(O)C1OC1OC(CO)C(O)C(OC(N)=O)C1O)c1cnc[nH]1 (stereo not shown) [Compound No. 32]", "%", 0],
  ["Cc1c(N)nc(C(CC(N)=O)NCC(N)C(N)=O)nc1C(=O)NC(C(=O)NC(C)C(O)C(C)C(=O)NC(C(=O)NCCc1nc(-c2nc(C(=O)NCCCN(C)CCCNCCc3ccc(Cl)cc3)cs2)cs1)C(C)O)C(OC1OC(CO)C(O)C(O)C1OC1OC(CO)C(O)C(OC(N)=O)C1O)c1cnc[nH]1 (stereo not shown) [compound 1]", "%", 11],
  ["COc1ccc(CNCCCN(C)CCCNC(=O)c2csc(-c3csc(CCNC(=O)C(NC(=O)C(C)C(O)C(C)NC(=O)C(NC(=O)c4nc(C(CC(N)=O)NCC(N)C(N)=O)nc(N)c4C)C(OC4OC(CO)C(O)C(O)C4OC4OC(CO)C(O)C(OC(N)=O)C4O)c4cnc[nH]4)C(C)O)n3)n2)c(OC)c1 (stereo not shown) [compound 13]", "%", 11],
  ["Cc1c(N)nc(C(CC(N)=O)NCC(N)C(N)=O)nc1C(=O)NC(C(=O)NC(C)C(O)C(C)C(=O)NC(C(=O)NCCc1nc(-c2nc(C(=O)NCCCN(C)CCCN(Cc3ccc(OCc4ccc(OCc5ccccc5)cc4)cc3)Cc3ccc(OCc4ccc(OCc5ccccc5)cc4)cc3)cs2)cs1)C(C)O)C(OC1OC(CO)C(O)C(O)C1OC1OC(CO)C(O)C(OC(N)=O)C1O)c1cnc[nH]1 (stereo not shown) [compound 51]", "%", 0],
  ["Cc1c(N)nc(C(CC(N)=O)NCC(N)C(N)=O)nc1C(=O)NC(C(=O)NC(C)C(O)C(C)C(=O)NC(C(=O)NCCc1nc(-c2nc(C(=O)NCCCN(C)CCCNCC3CCCCCCC3)cs2)cs1)C(C)O)C(OC1OC(CO)C(O)C(O)C1OC1OC(CO)C(O)C(OC(N)=O)C1O)c1cnc[nH]1.Cl.Cl.Cl (stereo not shown) [Compound No. 22]", "%", 0]
]}

----------
# Test system: CDF1 /SLC strain male mice
# MEASUREMENT_PROTOCOL: Acute toxicity, LD50 on 10 consecutive days
# Type: in vivo
# CONDITIONS: subcutaneous, Behrens-Karber method

{"columns": ["COMPOUND", "STUDY_TARGET", "UNIT", "LD50 (daily dose)"],
 "data": [
  ["Cc1c(N)nc(C(CC(N)=O)NCC(N)C(N)=O)nc1C(=O)NC(C(=O)NC(C)C(O)C(C)C(=O)NC(C(=O)NCCc1nc(-c2nc(C(=O)NCCCN(C)CCCNCC3CCCCCCCCCC3)cs2)cs1)C(C)O)C(OC1OC(CO)C(O)C(O)C1OC1OC(CO)C(O)C(OC(N)=O)C1O)c1cnc[nH]1 (stereo not shown) [Compound No. 32]", "CDF1 /SLC strain male mice", "mg/kg/day", 17.5],
  ["Cc1c(N)nc(C(CC(N)=O)NCC(N)C(N)=O)nc1C(=O)NC(C(=O)NC(C)C(O)C(C)C(=O)NC(C(=O)NCCc1nc(-c2nc(C(=O)NCCCN3CCN(CCCN(Cc4ccccc4)Cc4ccccc4)CC3)cs2)cs1)C(C)O)C(OC1OC(CO)C(O)C(O)C1OC1OC(CO)C(O)C(OC(N)=O)C1O)c1cnc[nH]1 (stereo not shown) [Compound No. 43]", "CDF1 /SLC strain male mice", "mg/kg/day", 12.5],
  ["CC[N+](CC)(CCCNC(=O)c1csc(-c2csc(CCNC(=O)C(NC(=O)C(C)C(O)C(C)NC(=O)C(NC(=O)c3nc(C(CC(N)=O)NCC(N)C(N)=O)nc(N)c3C)C(OC3OC(CO)C(O)C(O)C3OC3OC(CO)C(O)C(OC(N)=O)C3O)c3cnc[nH]3)C(C)O)n2)n1)CCCN(Cc1ccccc1)Cc1ccccc1 (stereo not shown) [Compound No. 37]", "CDF1 /SLC strain male mice", "mg/kg/day", 50.0],
  ["Cc1c(N)nc(C(CC(N)=O)NCC(N)C(N)=O)nc1C(=O)NC(C(=O)NC(C)C(O)C(C)C(=O)NC(C(=O)NCCc1nc(-c2nc(C(=O)NCCCN(C)CCCN(Cc3ccc(OCc4ccccc4)c(OCc4ccccc4)c3)Cc3ccc(OCc4ccccc4)c(OCc4ccccc4)c3)cs2)cs1)C(C)O)C(OC1OC(CO)C(O)C(O)C1OC1OC(CO)C(O)C(OC(N)=O)C1O)c1cnc[nH]1 (stereo not shown) [Compound No. 34]", "CDF1 /SLC strain male mice", "mg/kg/day", 60.0]
]}

----------
# Test system: ICR strain mice
# MEASUREMENT_PROTOCOL: Pulmonary toxicity (pulmonary fibrosis) in mice, intraperitoneal injection
# Assay type: in vivo
# CONDITIONS: 5 mg/kg i.p. once a day for 10 days; reference of the ratio not stated
MEASURED_ATTRIBUTE: Incidence of pulmonary fibrosis, Ratio

{"columns": ["COMPOUND", "ENDPOINT_RESULT"],
 "data": [
  ["CC[N+](CC)(CCCNCCc1ccc(Cl)cc1)CCCNC(=O)c1csc(-c2csc(CCNC(=O)C(NC(=O)C(C)C(O)C(C)NC(=O)C(NC(=O)c3nc(C(CC(N)=O)NCC(N)C(N)=O)nc(N)c3C)C(OC3OC(CO)C(O)C(O)C3OC3OC(CO)C(O)C(OC(N)=O)C3O)c3cnc[nH]3)C(C)O)n2)n1 (stereo not drawn)", 0.00],
  ["Cc1c(N)nc(C(CC(N)=O)NCC(N)C(N)=O)nc1C(=O)NC(C(=O)NC(C)C(O)C(C)C(=O)NC(C(=O)NCCc1nc(-c2nc(C(=O)NCCCN(C)CCCNCC3CCCCCCCCCC3)cs2)cs1)C(C)O)C(OC1OC(CO)C(O)C(O)C1OC1OC(CO)C(O)C(OC(N)=O)C1O)c1cnc[nH]1 (stereo not drawn)", 0.00],
  ["Cc1c(N)nc(C(CC(N)=O)NCC(N)C(N)=O)nc1C(=O)NC(C(=O)NC(C)C(O)C(C)C(=O)NC(C(=O)NCCc1nc(-c2nc(C(=O)NCCCN(C)CCCNC(C)c3ccc(Cl)cc3)cs2)cs1)C(C)O)C(OC1OC(CO)C(O)C(O)C1OC1OC(CO)C(O)C(OC(N)=O)C1O)c1cnc[nH]1 (stereo not drawn)", 0.35]
]}
